# test_name: Human liver microsomal stability assay
# settings: human, microsomes, pH 7.4, HLM T 1/2, human liver microsomes
Reported half-life at 0.5 μM by item:
reported_metric: half-life at 0.5 μM

{"columns": ["molecule", "observed_value"],
 "data": [
  ["COc1ccc(CNC(=O)C2CCN(C(C)c3cccc4ccccc34)CC2)cc1 (centres unmarked)", "35 min"],
  ["COc1ccc(CC(=O)N2CCN([C@@H](C)c3cccc4ccccc34)CC2)cc1", "14.9 min"]
]}

----------
# System: uninfected HeLa-ACE2 cells
# settings: Hela-ACE2 Uninfected Cell Toxicity; relation in column qAC50 Mode; unit not given
reported_metric: qAC50

{"columns": ["compound", "reported_metric", "observed_value"],
 "data": [
  ["Cc1ccc(CNC(=O)C2CCN([C@@H](C)c3cccc4ccccc34)CC2)cc1 (stereo in doubt)", "qAC50", "> 3.984e-5"],
  ["C[C@@H](c1cccc2ccccc12)N1CCC(C(=O)NCC2CCCCC2)CC1 (racemic)", "qAC50", "> 3.984e-5"],
  ["Cc1ccc(CNC(=O)C2CCN([C@H](C)c3cccc4ccccc34)CC2)cc1", "qAC50", "> 3.984e-5"]
]}

Data credit: paper PMC12461331
